conditions: 298.15 K; 101.33 kPa; Liquid; Pycnometric method
Reported Endpoint: mass density (kg/m3)
The response must be a number in kg/m3 with no trailing unit.

Give the measured mass density of CC(=O)OCCC(C)C [3-methylbutyl ethanoate] .
866.4

Quick one: mass density of CCCCCOC(C)=O [pentyl ethanoate] ?
872.3

Item CCCCCO [pentan-1-ol] has what recorded mass density?
811.2

Name the reported mass density value associated with the molecule CC(C)CCO [3-methylbutan-1-ol]
807.6
